# TESTED_ON: UniProt:Q9UBR2
# TEST_DETAILS: Cathepsin Z inhibition assay
# Format: biochemical
# EXPERIMENTAL_SETUP: Table 4; read-out: IC50 (nM) CatZ
READOUT_LABEL: IC50

COC(C)(C)C(=O)NC(CCCCN)C(=O)COC(C(F)(F)F)C(F)(F)F (stereo not drawn) [Compound 69a]; > 10000 nM

Please give IC50 for each item listed below.
1. NCCCC[C@H](NC(=O)C1CCCC1)C(=O)COc1c(F)ccc(F)c1F
2. NCCCC[C@H](NC(=O)C1CCCC1)C(=O)COc1c(F)c(F)cc(F)c1F (stereo in doubt) [Compound 73, reference compound]

Output:
> 10000 nM
> 10000 nM

###

Can you tell me IC50 for the items I'm about to list?
# TESTED_ON: Cathepsin B (Homo sapiens (Human))
# TEST_DETAILS: Cathepsin B inhibition assay
# Type: biochemical
# EXPERIMENTAL_SETUP: Table 4; read-out: IC50 (nM) CatB

Check out these entries, answers already filled in.
NCCCCC(NC(=O)C1CCCC1)C(=O)COc1cccc(F)c1 (stereo not drawn); > 10000 nM
NCCCCC(NC(=O)C1CCCC1)C(=O)COC(C(F)(F)F)C(F)(F)F (stereo not drawn) [Compound 18a]; > 10000 nM
NCCCC[C@H](NC(=O)C1CCCC1)C(=O)COc1c(F)ccc(F)c1F; 380 nM
COC(C)(C)C(=O)NC(CCCCN)C(=O)COc1c(F)ccc(F)c1F (stereo not drawn) [Compound 47a]; > 10000 nM
NCCCCC(NC(=O)c1ccc(F)nc1)C(=O)COc1ccon1 (stereo not drawn) [Compound 55a]; > 10000 nM

Each of the following entries comes with a recorded value; kindly state IC50 for each.
1. COC(C)(C)C(=O)NC(CCCCN)C(=O)COC(C(F)(F)F)C(F)(F)F (stereo not drawn) [Compound 69a]
2. NCCCCC(NC(=O)C1CCCC1)C(=O)COc1c(F)cccc1F (stereo not drawn)

Output:
["> 10000 nM", "> 10000 nM"]

Below is a list of molecules. For each, state its recorded IC50.
1. NCCCC[C@H](NC(=O)C1CCCC1)C(=O)COc1c(F)c(F)cc(F)c1F (stereo in doubt) [Compound 73, reference compound]
2. NCCCCC(NC(=O)c1ccccn1)C(=O)COc1c(F)ccc(F)c1F (stereo not drawn) [Compound 50a]

Output:
1: 485 nM; 2: > 10000 nM

###

# TESTED_ON: lysine gingipain (Kgp) (Porphyromonas gingivalis (Bacteroides gingivalis), UniProt P72194)
# TEST_DETAILS: biochemical
# Type: biochemical
# EXPERIMENTAL_SETUP: IC50 (nM) Kgp, Table 3
For each of the compounds below, state its IC50.
Numbers only, in nM.

NCCCCC(NC(=O)C1CCCC1)C(=O)COc1cc(F)ccc1F (stereo not drawn); 0.19
NCCCCC(NC(=O)C1CCCC1)C(=O)COc1cc(F)cc(F)c1F (stereo not drawn); 0.07
NCCCCC(NC(=O)C1CCCC1)C(=O)COc1ccccc1F (stereo not drawn); 0.64
NCCCCC(NC(=O)C1CCCC1)C(=O)COC(C(F)(F)F)C(F)(F)F (stereo not drawn) [Compound 18a]; 0.5

Look up IC50 for the entries below, preserving their order.
1. NCCCCC(NC(=O)C1CCCC1)C(=O)COc1cc(F)cc(F)c1 (stereo not drawn)
2. [N-]=[N+]=Nc1cccc(C(=O)NC(CCCCN)C(=O)COc2c(F)cccc2F)c1 (stereo not drawn) [Compound 12a]

Output:
1. 0.34
2. 0.08

Give one value of IC50 per listed compound.
1. NCCCCC(NC(=O)C1CCCC1)C(=O)COc1cccc(F)c1 (stereo not drawn)
2. NCCCCC(NC(=O)C1CCCC1)C(=O)COc1cccc(F)c1F (stereo not drawn)

Output:
1. 1.3
2. 0.15

###

# TESTED_ON: Cathepsin H (Homo sapiens (Human))
# TEST_DETAILS: Cathepsin H inhibition assay
# Type: biochemical
# EXPERIMENTAL_SETUP: Table 4; read-out: IC50 (nM) CatH
READOUT_LABEL: IC50

# batch size: 4; output IC50 per entry
1. COC(C)(C)C(=O)NC(CCCCN)C(=O)COC(C(F)(F)F)C(F)(F)F (stereo not shown) [Compound 69a]
2. NCCCCC(NC(=O)c1ccc(F)nc1)C(=O)COc1ccon1 (stereo not shown) [Compound 55a]
3. NCCCCC(NC(=O)c1ccccn1)C(=O)COc1c(F)ccc(F)c1F (stereo not shown) [Compound 50a]
4. NCCCCC(NC(=O)C1CCCC1)C(=O)COc1c(F)cccc1F (stereo not shown) [Compound 2a]

Output:
1. > 10000 nM
2. > 10000 nM
3. > 10000 nM
4. 1550 nM

###

Exercise: state measured log10(IC50) for each of the compounds provided.
# TESTED_ON: UniProt:P72194
# TEST_DETAILS: biochemical
# Assay type: biochemical
# EXPERIMENTAL_SETUP: IC50 (nM) Kgp, Table 4
# Protocol: The specific assay conditions were as follows. Buffer: pH=7.5, 100 mM Tris-HCl, 75 mM NaCl, 2.5 mM CaCl2), 10 mM cysteine, 1% DMSO after all additions. […] Further assays to measure the inhibitory activity of compounds of the present invention against Kgp and cathepsins B, H, K, L, and S were conducted as described in Example 66. The capacities of the compounds to inhibit the activity of cathepsins F, V, and Z were also measured.
In plain terms, each number is the log10 of measured IC50 in nM.

List log10(IC50) for every entry below, keeping the order given.
1. NCCCCC(NC(=O)c1ccccn1)C(=O)COc1c(F)ccc(F)c1F (stereo not shown) [Compound 50a]
2. NCCCCC(NC(=O)C1CCCC1)C(=O)COc1cccc(F)c1 (stereo not shown)
3. COC(C)(C)C(=O)NC(CCCCN)C(=O)COc1cccnc1 (stereo not shown) [Compound 64a]
4. NCCCCC(NC(=O)c1ccc(F)nc1)C(=O)COc1c(F)cccc1F (stereo not shown) [Compound 29a]
5. [N-]=[N+]=Nc1cccc(C(=O)NC(CCCCN)C(=O)COc2c(F)cccc2F)c1 (stereo not shown) [Compound 33a]

Output:
1: -1.05; 2: 0.11; 3: -0.40; 4: -0.51; 5: -1.10

###

Would you kindly list IC50 for each of these compounds?
# TESTED_ON: Cathepsin S (Homo sapiens (Human), UniProt P25774)
# TEST_DETAILS: Cathepsin S inhibition assay
# Assay type: biochemical
# EXPERIMENTAL_SETUP: Table 3; read-out: IC50 (nM) CatS
Give bare numbers, in nM.

NCCCCC(NC(=O)C1CCCC1)C(=O)COc1cccc(F)c1 (stereo not drawn) [Compound 7a]; 24100
NCCCC[C@H](NC(=O)C1CCCC1)C(=O)COc1c(F)c(F)cc(F)c1F (stereo in doubt) [Compound 73, reference compound]; 9980
NCCCC[C@H](NC(=O)C1CCCC1)C(=O)COc1c(F)ccc(F)c1F (racemic) [1a - non-racemic]; 29500

Turning now to a further record.
Input: Which IC50 is listed for NCCCCC(NC(=O)C1CCCC1)C(=O)COc1cc(F)ccc1F (stereo not drawn) [Compound 6a] ?
Output: 42800

###

# TESTED_ON: Cathepsin K (Homo sapiens (Human), UniProt P43235)
# TEST_DETAILS: Cathepsin K inhibition assay
# Assay type: biochemical
# EXPERIMENTAL_SETUP: Table 3; read-out: IC50 (nM) CatK
READOUT_LABEL: IC50 (nM)
Numbers only, in nM.

Reference set (2 entries):
NCCCC[C@H](NC(=O)C1CCCC1)C(=O)COc1c(F)ccc(F)c1F (racemic) [1a - non-racemic]; 170
NCCCCC(NC(=O)C1CCCC1)C(=O)COc1cccc(F)c1 (centres unmarked) [Compound 7a]; 20200

--- query ---
Input: Quick check: IC50 of NCCCC[C@H](NC(=O)C1CCCC1)C(=O)COc1c(F)c(F)cc(F)c1F (stereo in doubt) [Compound 73, reference compound] ?
Output: 20

###

# TESTED_ON: Cathepsin L (Homo sapiens (Human))
# TEST_DETAILS: Cathepsin L inhibition assay
# Format: biochemical
# EXPERIMENTAL_SETUP: Table 4; read-out: IC50 (nM) CatL
READOUT_LABEL: IC50

NCCCCC(NC(=O)c1ccccn1)C(=O)COc1c(F)ccc(F)c1F (stereo not drawn) [Compound 50a]; > 10000 nM
NCCCCC(NC(=O)C1CCCC1)C(=O)COC(C(F)(F)F)C(F)(F)F (stereo not drawn) [Compound 18a]; > 10000 nM
NCCCCC(NC(=O)c1ccc(F)nc1)C(=O)COc1ccon1 (stereo not drawn) [Compound 55a]; 6380 nM

Below are 3 compounds. Give each one its IC50.
1. NCCCC[C@H](NC(=O)C1CCCC1)C(=O)COc1c(F)ccc(F)c1F [Compound 1]
2. NCCCCC(NC(=O)C1CCCC1)C(=O)COc1c(F)cccc1F (stereo not drawn) [Compound 2a]
3. NCCCCC(NC(=O)C1CCCC1)C(=O)COc1cccc(F)c1 (stereo not drawn) [Compound 7a]

Output:
4680 nM
> 10000 nM
> 10000 nM

// batch mode: one IC50 value per listed entry
1. COC(C)(C)C(=O)NC(CCCCN)C(=O)COC(C(F)(F)F)C(F)(F)F (stereo not drawn) [Compound 69a]
2. NCCCC[C@H](NC(=O)C1CCCC1)C(=O)COc1c(F)c(F)cc(F)c1F (stereo in doubt) [Compound 73, reference compound]
3. COC(C)(C)C(=O)NC(CCCCN)C(=O)COc1c(F)ccc(F)c1F (stereo not drawn) [Compound 47a]

Output:
> 10000 nM
700 nM
> 10000 nM
